For each of the compounds below, state its MIC.
tested on: S. faecalis ATCC 7080; test: In vitro antimicrobial activity (MIC), standard dilution test; format: cell-based; conditions: inoculum about 10^4 CFU/ml, 18-24 h at 37° C.

Tell me the measured MIC of NC1C(=O)NC2Cc3ccc(c(Cl)c3)Oc3cc4cc(c3O)Oc3ccc(cc3Cl)CC3=NC(=O)C(NC(=O)C4NC(=O)C(NC2=O)c2cc(O)cc(c2)Oc2cc1ccc2O)c1ccc(O)c(c1)-c1c(O[C@H]2O[C@H](CO)[C@@H](O)[C@H](O)[C@@H]2O)cc(O)cc1C(C(=O)O)NC3=O (stereo partly shown) , please. 1 µg/mL

Tell me the measured MIC of NC1C(=O)NC2Cc3ccc(c(Cl)c3)Oc3cc4cc(c3O)Oc3ccc(cc3Cl)C=C3NC(=O)C(NC(=O)C4NC(=O)C(NC2=O)c2cc(O)cc(c2)Oc2cc1ccc2O)c1ccc(O)c(c1)-c1c(O)cc(O)cc1C(C(=O)O)NC3=O (single isomer, unassigned) [Compound V] , please. 16 µg/mL

Tell me the measured MIC of NC1C(=O)NC2Cc3ccc(c(Cl)c3)Oc3cc4cc(c3O)Oc3ccc(cc3Cl)CC3=NC(=O)C(NC(=O)C4NC(=O)C(NC2=O)c2cc(O)cc(c2)Oc2cc1ccc2O)c1ccc(O)c(c1)-c1c(O)cc(O)cc1C(C(=O)O)NC3=O (stereo not shown) , please. 1 µg/mL

Tell me the measured MIC of NC1C(=O)NC2Cc3ccc(c(Cl)c3)Oc3cc4cc(c3O)Oc3ccc(cc3Cl)C=C3NC(=O)C(NC(=O)C4NC(=O)C(NC2=O)c2cc(O)cc(c2)Oc2cc1ccc2O)c1ccc(O)c(c1)-c1c(O)cc(O)cc1C(C(=O)O)NC3=O (single isomer, unassigned) [Compound IV] , please. 8 µg/mL

###

For each of the molecules below, state its MIC.
system: S. pneumoniae UC 41; assay: In vitro antimicrobial activity (MIC), standard dilution test; type: cell-based; details: inoculum about 10^4 CFU/ml, 18-24 h at 37° C.
Write the answer as a number in µg/mL, unit excluded.

Tell me the measured MIC of NC1C(=O)NC2Cc3ccc(c(Cl)c3)Oc3cc4cc(c3O)Oc3ccc(cc3Cl)CC3=NC(=O)C(NC(=O)C4NC(=O)C(NC2=O)c2cc(O)cc(c2)Oc2cc1ccc2O)c1ccc(O)c(c1)-c1c(O)cc(O)cc1C(C(=O)O)NC3=O (stereo not shown) , please. 1

Tell me the measured MIC of NC1C(=O)NC2Cc3ccc(c(Cl)c3)Oc3cc4cc(c3O)Oc3ccc(cc3Cl)C=C3NC(=O)C(NC(=O)C4NC(=O)C(NC2=O)c2cc(O)cc(c2)Oc2cc1ccc2O)c1ccc(O)c(c1)-c1c(O)cc(O)cc1C(C(=O)O)NC3=O (single isomer, unassigned) [Compound IV] , please. 4

Tell me the measured MIC of NC1C(=O)NC2Cc3ccc(c(Cl)c3)Oc3cc4cc(c3O)Oc3ccc(cc3Cl)CC3=NC(=O)C(NC(=O)C4NC(=O)C(NC2=O)c2cc(O)cc(c2)Oc2cc1ccc2O)c1ccc(O)c(c1)-c1c(O[C@H]2O[C@H](CO)[C@@H](O)[C@H](O)[C@@H]2O)cc(O)cc1C(C(=O)O)NC3=O (stereo partly shown) , please. 2

Tell me the measured MIC of NC1C(=O)NC2Cc3ccc(c(Cl)c3)Oc3cc4cc(c3O)Oc3ccc(cc3Cl)C=C3NC(=O)C(NC(=O)C4NC(=O)C(NC2=O)c2cc(O)cc(c2)Oc2cc1ccc2O)c1ccc(O)c(c1)-c1c(O)cc(O)cc1C(C(=O)O)NC3=O (single isomer, unassigned) [Compound V] , please. 8
